# tested.system: human κ (CHO-KOR) opioid receptor (Homo sapiens, UniProt P41145)
# Construct: expressed in transfected cells
# Sequence (P41145 whole entry): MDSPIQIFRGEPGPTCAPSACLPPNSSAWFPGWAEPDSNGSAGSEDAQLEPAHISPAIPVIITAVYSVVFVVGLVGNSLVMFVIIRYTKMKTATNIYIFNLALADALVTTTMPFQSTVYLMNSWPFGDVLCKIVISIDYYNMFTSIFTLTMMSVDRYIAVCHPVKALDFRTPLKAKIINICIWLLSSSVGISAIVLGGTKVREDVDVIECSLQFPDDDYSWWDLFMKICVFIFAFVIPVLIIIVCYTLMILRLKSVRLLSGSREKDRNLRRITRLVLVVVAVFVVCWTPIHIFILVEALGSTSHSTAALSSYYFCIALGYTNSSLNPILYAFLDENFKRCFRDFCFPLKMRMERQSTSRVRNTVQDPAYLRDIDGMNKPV
# measurement.protocol: Stimulation of [35S]GTPγS binding, KOR
# Format: biochemical
# run.conditions: [35S]GTPγS binding, CHO-KOR membranes; mean ± standard error
EC50 by entry:
State the answer as a number, implicitly in µM.

Cc1cc(O)cc(C)c1C[C@H](N)C(=O)N[C@@H]1CCNc2c(Br)cc(Cc3ccccc3)cc21 :: 0.3
Cc1cc(O)cc(C)c1C[C@H](N)C(=O)N[C@@H]1CCNc2ccc(Sc3ccccc3)cc21 :: 1.12
Cc1cc(O)cc(C)c1C[C@H](N)C(=O)NC1CCc2ccc(Cc3ccccc3)cc21 (stereo partly shown) :: 1.6

Please look at the following compound next.
What does the data say about its EC50? Entry: Cc1cc(O)cc(C)c1C[C@H](N)C(=O)N[C@H]1c2cc(Cc3ccccc3)ccc2NC[C@H]1C
0.9
